experiment_description: Permeability of the compound at 200 uM measured after 5 hrs at pH 7.4 by PAMPA
Format: ADME
setup_conditions: read-out: permeability
readout: Papp at 5 h, 200 µM (×10⁻⁶ cm/s)
Output spec: scalar in ×10⁻⁶ cm/s, unitless text.

Entry NC(=O)N1c2ccccc2C=Cc2ccccc21 [CARBAMAZEPINE] has what Papp at 5 h, 200 µM?
8.1

Entry `CCCCCC(=O)N[C@H](C(=O)NCc1ccc(NC(=N)N)cc1)c1ccc(OCc2ccccc2)cc1.O=C(O)C(F)(F)F` has what Papp at 5 h, 200 µM?
1.6

Entry `CCCCCCCC(=O)N[C@H](C(=O)NCc1ccc(NC(=N)N)cc1)c1ccc(OCc2ccccc2)cc1.O=C(O)C(F)(F)F` has what Papp at 5 h, 200 µM?
0.3

Entry O=C1NC(=O)C(c2ccccc2)(c2ccccc2)N1 [PHENYTOIN] has what Papp at 5 h, 200 µM?
6

Entry `CCCCCCC(=O)N[C@H](C(=O)NCc1ccc(NC(=N)N)cc1)c1ccc(OCc2ccccc2)cc1.O=C(O)C(F)(F)F` has what Papp at 5 h, 200 µM?
0.4

Entry `N=C(N)Nc1ccc(CNC(=O)[C@@H](NC(=O)c2cccc(Oc3ccccc3)c2)c2ccc(OCc3ccccc3)cc2)cc1.O=C(O)C(F)(F)F` has what Papp at 5 h, 200 µM?
0.2

Entry `N=C(N)Nc1ccc(CNC(=O)[C@@H](NC(=O)c2ccc(Oc3ccccc3)cc2)c2ccc(OCc3ccccc3)cc2)cc1.O=C(O)C(F)(F)F` has what Papp at 5 h, 200 µM?
0.3

Entry `N=C(N)Nc1ccc(CNC(=O)[C@@H](NC(=O)c2ccc(OC3CCCCC3)cc2)c2ccc(OCc3ccccc3)cc2)cc1.O=C(O)C(F)(F)F` has what Papp at 5 h, 200 µM?
0.3

Entry Cn1c(=O)c2c(ncn2C)n(C)c1=O [CAFFEINE] has what Papp at 5 h, 200 µM?
7.7
